Hi there, I'd appreciate the recorded OT (efficacy) for every entry that follows.
# target_system: human OT receptor (Homo sapiens)
# Construct: expressed in transfected cells; host or cells: mammalian cell line, e.g. Chinese hamster ovary (CHO), stably or transiently transfected; co-transfected with a firefly luciferase reporter (e.g. NFAT promoter)
# procedure_details: human OT receptor agonist assay, luciferase reporter (NFAT promoter) in transfected CHO cells
# Assay type: cell-based
# details: maximal efficacy compared to the maximal stimulation observed with OT
Give your result in % as a bare value.

Per the records, this compound ( Cc1cc(C(=O)N2Cc3cnn(C)c3Nc3ccccc32)cc(C)c1CNC(=O)N1CCN(Cc2cc(O)cc(O)c2)CC1 ) has OT (efficacy) equal to 16

Per the records, this compound ( Cn1ncc2c1Nc1ccccc1N(C(=O)c1ccc(CNC(=O)N3CCN(Cc4cc(O)cc(O)c4)CC3)cc1Cl)C2 ) has OT (efficacy) equal to 41

Per the records, this compound ( Cn1ncc2c1Nc1ccccc1N(C(=O)c1ccc(CNC(=O)N3CCN(Cc4cc(O)cc(O)c4)CC3)c(F)c1)C2 ) has OT (efficacy) equal to 51

Per the records, this compound ( Cc1cc(C(=O)N2Cc3cnn(C)c3Nc3ccccc32)ccc1CNC(=O)N1CCN(Cc2cc(O)cc(O)c2)CC1 ) has OT (efficacy) equal to 76

Per the records, this compound ( Cc1cc(C(=O)N2Cc3cnn(C)c3Nc3ccccc32)ccc1CNC(=O)N1CCN(Cc2cccc(C(=O)N(C)C)c2)CC1 ) has OT (efficacy) equal to 13

Per the records, this compound ( Cc1cc(C(=O)N2Cc3cnn(C)c3Nc3ccccc32)ccc1CNC(=O)N1CCN(Cc2cccc(C(=S)N(C)C)c2)CC1 ) has OT (efficacy) equal to 21

---

# target_system: human OT receptor (Homo sapiens, UniProt P30559)
# Construct: co-transfected with a firefly luciferase reporter (e.g. NFAT promoter)
# Sequence (P30559 1-389): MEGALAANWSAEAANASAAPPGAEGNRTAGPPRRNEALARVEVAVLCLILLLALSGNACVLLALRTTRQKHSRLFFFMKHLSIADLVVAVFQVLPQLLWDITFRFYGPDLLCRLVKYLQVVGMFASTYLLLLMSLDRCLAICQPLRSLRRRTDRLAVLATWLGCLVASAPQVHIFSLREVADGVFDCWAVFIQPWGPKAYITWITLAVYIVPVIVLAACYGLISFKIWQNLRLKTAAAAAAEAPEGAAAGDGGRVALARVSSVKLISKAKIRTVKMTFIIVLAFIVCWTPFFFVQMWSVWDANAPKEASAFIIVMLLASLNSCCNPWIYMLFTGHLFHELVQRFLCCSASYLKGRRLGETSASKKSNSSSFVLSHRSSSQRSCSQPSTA
# procedure_details: human OT receptor agonist assay, luciferase reporter (NFAT promoter) in transfected CHO cells
# details: concentration at which the response is 50% of the maximum; 4-parameter logistic fit; luciferase reporter in cells expressing the human OT receptor
property_name: EC50
Kindly format the answer as number then unit.

Per the records, this compound ( Cc1cc(C(=O)N2Cc3cnn(C)c3Nc3ccccc32)cc(C)c1CNC(=O)N1CCN(Cc2cc(O)cc(O)c2)CC1 ) has EC50 equal to 0.024 µM

Per the records, this compound ( Cn1ncc2c1Nc1ccccc1N(C(=O)c1ccc(CNC(=O)N3CCN(Cc4cc(O)cc(O)c4)CC3)c(F)c1)C2 ) has EC50 equal to 0.074 µM

Per the records, this compound ( Cn1ncc2c1Nc1ccccc1N(C(=O)c1ccc(CNC(=O)N3CCN(Cc4cc(O)cc(O)c4)CC3)cc1Cl)C2 ) has EC50 equal to 0.058 µM

Per the records, this compound ( Cc1cc(C(=O)N2Cc3cnn(C)c3Nc3ccccc32)ccc1CNC(=O)N1CCN(Cc2cccc(C(=O)N(C)C)c2)CC1 ) has EC50 equal to 0.033 µM

Per the records, this compound ( Cc1cc(C(=O)N2Cc3cnn(C)c3Nc3ccccc32)ccc1CNC(=O)N1CCN(Cc2cccc(C(=S)N(C)C)c2)CC1 ) has EC50 equal to 0.19 µM
